Test system: Escherichia coli TOP10;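 further: peptides expressed intracellularly from a pBAD plasmid library in pooled LB shake-flask culture, induced with 0.3% L-arabinose, DNA abundance read by NGS, three biological replicates, DESeq2 with apeglm shrinkage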
Experiment: shrunken log2 fold change of peptide-encoding DNA abundance (4.5 h post-induction vs induction); higher = less antimicrobial activity (less host growth inhibition)
Details: time post-induction: 4.5 h; library: site-saturation at positions 5, 18, 19, 20
Recorded shrunken log2 fold change for the following sequences
reportedProperty: shrunken log2 fold change

# orderedResidues, valueObserved
measured = [
    ("RRIRGRPPRLPRPRPRPLGAPRP", 1.07),
    ("RRIRRRPPRLPRPRPRPNLWPRP", 0.552),
    ("RRIRKRPPRLPRPRPRPFVDPRP", -0.0489),
    ("RRIRQRPPRLPRPRPRPLEHPRP", -0.109),
    ("RRIRIRPPRLPRPRPRPSRMPRP", -0.271),
]
